The following compounds are shown together with reported growth values.
System: HCT-116 colon
Protocol Summary: NCI-60 one-dose screen, 48 h (100 = growth as untreated, 0 = no growth, -100 = all killed)
Test Parameters: 10 µM unless noted
About 83,000 compounds went through this panel and 20% of them were active in at least one assay; those are over-represented in the sample as a whole.
Write the number in % without appending the unit.

Please review the following examples before continuing.
>>> df
                                   compound  tested_target  recorded_metric  measured_number
0                  NC(N)=N/N=C/c1cccc(Br)c1  HCT-116 colon           growth             92.5
1  COc1cc(OC)cc(-c2ccc(-c3ccc(C(=N)N)cc3)s2)c1  HCT-116 colon           growth            -93.3
2                CC(=O)Oc1cc2ccccc2cc1C(C)C  HCT-116 colon           growth             97.1
3  O=C1Nc2ccccc2/C1=C/c1cn(CC(O)Cn2cc(/C=C3\C(=O)Nc4ccccc43)c3ccccc32)c2ccccc12 (stereo unspecified)  HCT-116 colon           growth            -64.2
4   CCN(CC)CCCNc1c2ccc(Cl)cc2nc2ccc(OC)cc12  HCT-116 colon           growth            -4.77

Per the record, CCCCN(CCCC)c1ccc(C(=O)O)cc1 has growth of 97.3

Origin of measurements: PubChem BioAssay (NCI)
